test: Caco-2 cells monolayer absorption and bidirectional transport experiment; assay type: in vitro ADME, human; conditions: human, Caco-2, text summary, no BSA, direction not specified; read-out: total recovery rate of control drugs
Measurement Kind: recovery at 2 h

Query block: Hello, please tell me recorded recovery at 2 h for this one: C[C@H]1O[C@@H](O[C@H]2[C@@H](O)C[C@H](O[C@H]3[C@@H](O)C[C@H](O[C@H]4CC[C@@]5(C)[C@H](CC[C@@H]6[C@@H]5C[C@@H](O)[C@]5(C)[C@@H](C7=CC(=O)OC7)CC[C@]65O)C4)O[C@@H]3C)O[C@@H]2C)C[C@H](O)[C@@H]1O [Digoxin, digoxin, reference compound]
Result block: > 83%

###

test: Caco-2 cells monolayer absorption and bidirectional transport experiment; type: in vitro ADME, human; settings: human, Caco-2, 15 µM, 0.1% bull serum albumin added
Measurement Kind: efflux ratio at 2 h, 15 µM
// keep it numeric: no unit symbol after the value

Query block: For the compound CC(C)=CCCC(C)=CCCC1(C)Oc2c(c(O)cc3c2CN(CCCC(C(=O)O)N2Cc4c(cc(O)c5c4OC(C)(CCC=C(C)CCC=C(C)C)C(O)C5)C2=O)C3=O)CC1O (stereo not shown) , give its reported efflux ratio at 2 h, 15 µM.
Result block: 2.91

###

assay: Pharmacokinetics after intravenous injection in beagle dogs; type: in vivo; settings: male, dog, whole blood; beagle dogs, intravenous, 7.5 mg·kg^−1
Measurement Kind: half-life (min)
Value expressed in min; do not type the unit.

Query block: Quote half-life reported for CC(C)=CCCC(C)=CCCC1(C)Oc2c(c(O)cc3c2CN(CCCC(C(=O)O)N2Cc4c(cc(O)c5c4OC(C)(CCC=C(C)CCC=C(C)C)C(O)C5)C2=O)C3=O)CC1O (stereo not shown) please.
Result block: 49

###

assay: Pharmacokinetics after intravenous injection in beagle dogs; assay type: in vivo; details: male, dog, whole blood; beagle dogs, intravenous, 5.0 mg·kg^−1
Measurement Kind: clearance (mL/min/kg)
The figure you give is taken to be in mL/min/kg; do not add the unit.

Query block: Provide only the value of recorded clearance for CC(C)=CCCC(C)=CCCC1(C)Oc2c(c(O)cc3c2CN(CCCC(C(=O)O)N2Cc4c(cc(O)c5c4OC(C)(CCC=C(C)CCC=C(C)C)C(O)C5)C2=O)C3=O)CC1O (stereo not shown)
Result block: 7.1

###

experiment: Pharmacokinetics after intravenous injection in beagle dogs; format: in vivo; conditions: male, dog, whole blood; beagle dogs, intravenous, 7.5 mg·kg^−1
Measurement Kind: clearance (mL/min/kg)
Output spec: scalar in mL/min/kg, unitless text.

Query block: # return recorded clearance for input CC(C)=CCCC(C)=CCCC1(C)Oc2c(c(O)cc3c2CN(CCCC(C(=O)O)N2Cc4c(cc(O)c5c4OC(C)(CCC=C(C)CCC=C(C)C)C(O)C5)C2=O)C3=O)CC1O (stereo not shown)
Result block: 6.2

###

assay: Caco-2 cells monolayer absorption and bidirectional transport experiment; type: in vitro ADME, human; settings: human, Caco-2, 25 µM, 0.1% bull serum albumin added
Measurement Kind: efflux ratio at 2 h, 25 µM

Query block: Determine from records and report efflux ratio at 2 h, 25 µM for CC(C)=CCCC(C)=CCCC1(C)Oc2c(c(O)cc3c2CN(CCCC(C(=O)O)N2Cc4c(cc(O)c5c4OC(C)(CCC=C(C)CCC=C(C)C)C(O)C5)C2=O)C3=O)CC1O (stereo not shown)
Result block: 1.49

###

assay: Pharmacokinetics after intravenous injection in beagle dogs; format: in vivo; conditions: male, dog, whole blood; beagle dogs, intravenous, 7.5 mg·kg^−1
Measurement Kind: MRT (min)
Provide only the numeric value, understood in min.

Query block: Annotate the compound CC(C)=CCCC(C)=CCCC1(C)Oc2c(c(O)cc3c2CN(CCCC(C(=O)O)N2Cc4c(cc(O)c5c4OC(C)(CCC=C(C)CCC=C(C)C)C(O)C5)C2=O)C3=O)CC1O (stereo not shown) with its measured MRT.
Result block: 28.2

###

Test: Caco-2 cells monolayer absorption and bidirectional transport experiment
Type: in vitro ADME, human
Details: human, Caco-2, 2 µM, 0.1% bull serum albumin added
Method: The samples included three control drugs (fenoterol, propranolol, and digoxin) and 2,5-BHPA. […] The total recovery was calculated by collecting the amount of lead compound absorbed on the membrane surface or accumulated in the cell. Finally, the concentration of each sample was calculated as the ratio of the peak area between the compound and the inner target through mass spectrum analysis (API 4000). […]
Measurement Kind: efflux ratio at 2 h, 2 µM

Query block: Entry C[C@H]1O[C@@H](O[C@H]2[C@@H](O)C[C@H](O[C@H]3[C@@H](O)C[C@H](O[C@H]4CC[C@@]5(C)[C@H](CC[C@@H]6[C@@H]5C[C@@H](O)[C@]5(C)[C@@H](C7=CC(=O)OC7)CC[C@]65O)C4)O[C@@H]3C)O[C@@H]2C)C[C@H](O)[C@@H]1O [Digoxin, digoxin, reference compound] needs its efflux ratio at 2 h, 2 µM filled in; supply it.
Result block: 485

###

assay: Caco-2 cells monolayer absorption and bidirectional transport experiment; type: in vitro ADME, human; conditions: human, Caco-2, text summary of Table 2, 0.1% BSA added; read-out: Papp, AP→BL or BL→AP direction
Measurement Kind: Papp at 2 h

Query block: Indicate the recorded Papp at 2 h value for this compound: CC(C)=CCCC(C)=CCCC1(C)Oc2c(c(O)cc3c2CN(CCCC(C(=O)O)N2Cc4c(cc(O)c5c4OC(C)(CCC=C(C)CCC=C(C)C)C(O)C5)C2=O)C3=O)CC1O (stereo not shown)
Result block: ≤ 2.5 ×10⁻⁶ cm/s

###

assay: Caco-2 cells monolayer absorption and bidirectional transport experiment; assay type: in vitro ADME, human; conditions: human, Caco-2, text summary, no BSA, over the concentrations tested; read-out: total recovery rate BL→AP
Measurement Kind: recovery at 2 h

Query block: Check the records and state recovery at 2 h for CC(C)=CCCC(C)=CCCC1(C)Oc2c(c(O)cc3c2CN(CCCC(C(=O)O)N2Cc4c(cc(O)c5c4OC(C)(CCC=C(C)CCC=C(C)C)C(O)C5)C2=O)C3=O)CC1O (stereo not shown) [2,5-BHPA]
Result block: 25.9 to 53%

###

assay: Caco-2 cells monolayer absorption and bidirectional transport experiment; type: in vitro ADME, human; conditions: human, Caco-2, 2 μM, no BSA
Measurement Kind: efflux ratio at 2 h, 2 µM
Provide a numeric answer; units are not to be included.

C[C@H]1O[C@@H](O[C@H]2[C@@H](O)C[C@H](O[C@H]3[C@@H](O)C[C@H](O[C@H]4CC[C@@]5(C)[C@H](CC[C@@H]6[C@@H]5C[C@@H](O)[C@]5(C)[C@@H](C7=CC(=O)OC7)CC[C@]65O)C4)O[C@@H]3C)O[C@@H]2C)C[C@H](O)[C@@H]1O [Digoxin, digoxin, reference compound]; 260

Query block: Quote efflux ratio at 2 h, 2 µM reported for CC(C)=CCCC(C)=CCCC1(C)Oc2c(c(O)cc3c2CN(CCCC(C(=O)O)N2Cc4c(cc(O)c5c4OC(C)(CCC=C(C)CCC=C(C)C)C(O)C5)C2=O)C3=O)CC1O (centres unmarked) please.
Result block: 1.55

###

test: Caco-2 cells monolayer absorption and bidirectional transport experiment; assay type: in vitro ADME, human; conditions: human, Caco-2, 5 µM, 0.1% bull serum albumin added
Measurement Kind: efflux ratio at 2 h, 5 µM
Just the number, please, no unit after it.

Query block: Please give measured efflux ratio at 2 h, 5 µM of the following entry: CC(C)=CCCC(C)=CCCC1(C)Oc2c(c(O)cc3c2CN(CCCC(C(=O)O)N2Cc4c(cc(O)c5c4OC(C)(CCC=C(C)CCC=C(C)C)C(O)C5)C2=O)C3=O)CC1O (stereo not shown)
Result block: 1.56
